- Run Parameters: 323.15 K; 101.33 kPa; Liquid; Vibrating tube method
Numbers after ± are expanded uncertainties.
Measured Attribute: mass density
Answers without a unit are incomplete; give the number and then its unit.

Field request: mass density | item: CCCCCCCCCCCCCC[P+](CCCCCC)(CCCCCC)CCCCCC.N#C[N-]C#N [tetradecyl(trihexyl)phosphonium dicyanamide]
884.8 ± 1 kg/m3

Any idea what its mass density is? The compound is CCCCCCCCCC(=O)[O-].CCCCCCCCCCCCCC[P+](CCCCCC)(CCCCCC)CCCCCC [trihexyltetradecylphosphonium decanoate]
865.3 ± 1 kg/m3

Using the record for CCCCCCCCCCCCCC[P+](CCCCCC)(CCCCCC)CCCCCC.[Cl-] [trihexyl(tetradecyl)phosphonium chloride] , report its mass density.
875.3 ± 1 kg/m3

What value of measured mass density is listed for CCCCCCCCCCCCCC[P+](CCCCCC)(CCCCCC)CCCCCC.O=S(=O)([N-]S(=O)(=O)C(F)(F)F)C(F)(F)F ?
1048 ± 1 kg/m3

mass density for CCCCCCCCCCCCCC[P+](CCCCCC)(CCCCCC)CCCCCC.[Br-] [tetradecyltrihexylphosphonium bromide] ?
939.8 ± 1 kg/m3

Quick one: mass density for CC(CC(C)(C)C)CP(=O)([O-])CC(C)CC(C)(C)C.CCCCCCCCCCCCCC[P+](CCCCCC)(CCCCCC)CCCCCC ?
870.4 ± 1 kg/m3

May I ask what mass density has been recorded for CCCCCCCCCCCCCC[P+](CCCCCC)(CCCCCC)CCCCCC.CS(=O)(=O)[O-] [trihexyltetradecylphosphonium methanesulfonate] ?
912.9 ± 1 kg/m3

---

- Run Parameters: 348.15 K; 101.33 kPa; Liquid; Vibrating tube method
Measured Attribute: mass density (kg/m3)
Quick reminder: number only, in kg/m3, skip the unit.

Record request: mass density value, item CCCCCCCCCC(=O)[O-].CCCCCCCCCCCCCC[P+](CCCCCC)(CCCCCC)CCCCCC [trihexyltetradecylphosphonium decanoate]
850.2

Which value of mass density has been reported for CCCCCCCCCCCCCC[P+](CCCCCC)(CCCCCC)CCCCCC.[Br-] [tetradecyltrihexylphosphonium bromide] in the records?
924.6

Any idea what its mass density is? The compound is CCCCCCCCCCCCCC[P+](CCCCCC)(CCCCCC)CCCCCC.O=S(=O)([N-]S(=O)(=O)C(F)(F)F)C(F)(F)F
1030.2

Could you tell me which mass density is on file for CCCCCCCCCCCCCC[P+](CCCCCC)(CCCCCC)CCCCCC.[Cl-] [trihexyl(tetradecyl)phosphonium chloride] ?
860.8

Query: mass density; subject: CC(CC(C)(C)C)CP(=O)([O-])CC(C)CC(C)(C)C.CCCCCCCCCCCCCC[P+](CCCCCC)(CCCCCC)CCCCCC
856

Quick check: mass density of CCCCCCCCCCCCCC[P+](CCCCCC)(CCCCCC)CCCCCC.N#C[N-]C#N [tetradecyl(trihexyl)phosphonium dicyanamide] ?
870.9

For the compound CCCCCCCCCCCCCC[P+](CCCCCC)(CCCCCC)CCCCCC.CS(=O)(=O)[O-] [trihexyltetradecylphosphonium methanesulfonate] , what mass density is on record?
898.3

---

Give measured mass density for each item. Keep answers brief.
- Run Parameters: 318.15 K; 101.33 kPa; Liquid; Vibrating tube method
// return numeric value only (unit: kg/m3, not printed)

For the compound shown here, CCCCCCCCCCCCCC[P+](CCCCCC)(CCCCCC)CCCCCC.O=S(=O)([N-]S(=O)(=O)C(F)(F)F)C(F)(F)F , give the reported mass density.
1051.6

I am curious: what mass density value has been reported for CC(CC(C)(C)C)CP(=O)([O-])CC(C)CC(C)(C)C.CCCCCCCCCCCCCC[P+](CCCCCC)(CCCCCC)CCCCCC ?
873.4

Query: mass density; subject: CCCCCCCCCC(=O)[O-].CCCCCCCCCCCCCC[P+](CCCCCC)(CCCCCC)CCCCCC [trihexyltetradecylphosphonium decanoate]
868.3

Could you tell me which mass density is on file for CCCCCCCCCCCCCC[P+](CCCCCC)(CCCCCC)CCCCCC.N#C[N-]C#N [tetradecyl(trihexyl)phosphonium dicyanamide] ?
887.6
